Data origin, for the record: PubChem BioAssay (NCI)

Experiment: NCI Yeast Anticancer Drug Screen. Data for the bub3 strain (AID 167)
Settings: S. cerevisiae bub3 mutant strain, at 50.0 µM
Method: Growth inhibition of yeast strains with defined genetic alterations is measured as a screen for potential anti-cancer activity. Selected strains with alterations in DNA damage repair or cell cycle control were exposed to compounds and growth inhibition was measured relative to vehicle treated controls. The strain used in this assay is bub3
The panel holds about 79,000 compounds, 15% with a hit somewhere; the sample as a whole holds those more often. The source made the active and inactive calls. Rule as the data show it: active = growth inhibition above about 70%; inactive = the rest.
The reply should be one of these categories: TRUE for active, FALSE for inactive

Test call, this compound: CSC(N)=NC1CCCCC1
FALSE

Test call, this compound: CCOC(=O)c1nc2ccc(C(F)(F)F)cc2nc1NCc1ccc(OC)cc1
FALSE

Test call, this compound: S=C1CSc2c(ccc3ccccc23)N1
FALSE

Test call, this compound: O=C1NC2OC(CO)C(O)C(O1)C2O (configuration not stated)
FALSE

Test call, this compound: CC(=O)Nc1ccc(NC(=O)Nc2cccc(Cl)c2C)cc1
FALSE

Test call, this compound: Cc1c(I)sc(I)c1I
FALSE

Test call, this compound: CC(=O)OC1CC2CCCCC2CC1[N+](C)(C)C (configuration not stated)
FALSE

Test call, this compound: OC(CBr)CBr
FALSE

Test call, this compound: O=C=Nc1ccc(Cl)c(Cl)c1
FALSE

Test call, this compound: Cc1cc(N(CCC#N)CCC#N)ccc1/C=C(\NC(=O)/C=C/c1ccccc1)C(=O)Nc1ccccc1Cl
FALSE

Test call, this compound: O=C1c2ccc(=O)[nH]c2C(=O)C2CC3=C(CCCC3)CC12 (configuration not stated)
FALSE

Test call, this compound: N=C(c1ccc2ccccc2c1)c1ccccc1Cc1ccccc1
FALSE

Test call, this compound: CSC1=N[C@H](c2ccccc2)CS1
FALSE

Test call, this compound: CCCCOC(=O)C1CC2OC2CC1C(=O)OCCOCCOC(=O)C1CC2OC2CC1C(=O)OCCCC (configuration not stated)
FALSE

Test call, this compound: Oc1ccc(Cl)cc1CC(=S)N1CCOCC1
FALSE

Test call, this compound: CC(=O)NC1C(OCc2ccccc2)OC(CO)C(O)C1OCc1ccccc1 (configuration not stated)
FALSE

Test call, this compound: Cc1nn(-c2nc(-c3ccc(Br)cc3)cs2)c(C)c1C
FALSE

Test call, this compound: Clc1ccc(C2=NON(c3ncccn3)C3N=CC=CN23)cc1 (configuration not stated)
FALSE

Test call, this compound: CC(=O)Nc1ccc(S(=O)(=O)/C(=C/c2ccc(-c3ccc(Br)cc3)o2)c2ccc([N+](=O)[O-])o2)cc1
FALSE

Test call, this compound: O=c1[nH]c(=O)c2c(Cl)cccc2[nH]1
FALSE

Test call, this compound: CC(=O)CC(=O)NC(C)(C)CC(C)(C)C
FALSE

Test call, this compound: CN(C)C(=O)C1C2CCC(C3CC32)C1C(=O)N(C)C (configuration not stated)
FALSE

Test call, this compound: CCCCCCC(C)CC(=O)O (configuration not stated)
FALSE

Test call, this compound: CC(C)C(Br)C(=O)N1CCOCC1 (configuration not stated)
FALSE

Test call, this compound: C=CCCCCCCCCO
FALSE

Test call, this compound: O=[N+]([O-])c1ccc2nc(Cl)n[n+]([O-])c2c1
TRUE

Test call, this compound: CCOC(=O)C(O)Cc1ccc(N)cc1 (configuration not stated)
FALSE

###

Experiment: NCI Yeast Anticancer Drug Screen. Data for the sgs1 mgt1 strain (AID 161);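 also: 0% = growth of cultures given vehicle only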
Settings: S. cerevisiae sgs1 mgt1 strain, at 50.0 µM, hits give high values
This is part of a sample that, as a whole, favours compounds with a hit. Of some 79,000 tested, about 15% had one in any assay. Activity calls are given as the source filed them. Rule as the data show it: active = growth inhibition above about 70%; inactive = the rest.
quantity_measured: growth inhibition

Name the recorded growth inhibition for CCCCN(CCCC)C(=O)C(=O)C(C)C(=O)CC (stereo unspecified) .
14.7% (inactive)

Name the recorded growth inhibition for CCCN(N)CCC .
-7.8% (inactive)

Name the recorded growth inhibition for C/C(=N/O)c1ccc[nH]1 .
-5.5% (inactive)

Name the recorded growth inhibition for CSC(=S)n1nc(-c2cccs2)c(N=Nc2ccc([N+](=O)[O-])cc2)c1C(F)(F)F .
19.9% (inactive)

Name the recorded growth inhibition for O=c1c2c3c(sc2nc2n1N=CN(c1ccc(Cl)cc1)C2)CCCC3 .
7.7% (inactive)

Name the recorded growth inhibition for COc1ccc(Cc2nc3c([nH]2)c(=O)n(C)c(=O)n3C)cc1 .
0.05% (inactive)

###

Assay: NCI Yeast Anticancer Drug Screen. Data for the sgs1 mgt1 strain (AID 161);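 also: 0% = growth of cultures given vehicle only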
Conditions: S. cerevisiae sgs1 mgt1 strain, at 50.0 µM, hits give high values
This is part of a sample that, as a whole, favours compounds with a hit. Of some 79,000 tested, about 15% had one in any assay.
Values of growth inhibition greater than or equal to 10% map to Criterion met; values below map to Criterion not met.

Record COC(=O)c1cccc(Cl)c1C(=O)c1ccc(C)cc1C ; criterion: growth inhibition no lower than 10%. Met?
Criterion not met

Record C=C(C)[C@@H]1CC[C@]2(C)CC[C@]3(C)[C@H](CC[C@@H]4[C@@]5(C)CC[C@H](OC(=O)c6ccccc6)C(C)(C)[C@@H]5CC[C@]43C)[C@@H]12 ; criterion: growth inhibition no lower than 10%. Met?
Criterion not met

Record C/C(=N\N)c1ccc(Cl)cc1O ; criterion: growth inhibition no lower than 10%. Met?
Criterion not met

Record O=S(=O)(O)C(Cc1nc2ccccc2[nH]1)S(=O)(=O)OCCC1S(=O)(=O)OCCOS1(=O)=O (centres undefined) ; criterion: growth inhibition no lower than 10%. Met?
Criterion met

Record CC#Cc1c(O)c2c(c(O)c1C#CC)C(=O)c1ccccc1C2=O ; criterion: growth inhibition no lower than 10%. Met?
Criterion not met

Record C=CC(=O)OCCCCCCCCCC ; criterion: growth inhibition no lower than 10%. Met?
Criterion met

Record C=CCOC(=O)Nc1ccc(S(=O)(=O)N(CCC)CCC)cc1 ; criterion: growth inhibition no lower than 10%. Met?
Criterion met

Record Cc1cccc2nc(-c3ccccc3)ccc12 ; criterion: growth inhibition no lower than 10%. Met?
Criterion not met

Record CC(CN1CCCC1)OC(=O)C(c1ccccc1)C1CCCC1 (centres undefined) ; criterion: growth inhibition no lower than 10%. Met?
Criterion met

Record CCOC(OCC)C(N)=O ; criterion: growth inhibition no lower than 10%. Met?
Criterion not met

Record CC(=O)OC1CCC2(C)C(=CCC3C2CCC2(C)C(C(C)C(=O)O)CCC32)C1 (centres undefined) ; criterion: growth inhibition no lower than 10%. Met?
Criterion not met

Record S=c1s/c(=C\c2ccccc2)c2nc3ccccc3n12 ; criterion: growth inhibition no lower than 10%. Met?
Criterion not met

Record c1ccc(-n2nnc3c2CCCC3)cc1 ; criterion: growth inhibition no lower than 10%. Met?
Criterion not met

Record Cc1ccc(NC(=O)C2C3CC4OC(=O)C2C4C3)cc1 (centres undefined) ; criterion: growth inhibition no lower than 10%. Met?
Criterion met

Record OC(COc1ccc(Cl)cc1Cl)CN1CCCC1 (centres undefined) ; criterion: growth inhibition no lower than 10%. Met?
Criterion met

Record CSC(=N)N1N=C2c3ccccc3CC[C@@H]2[C@@H]1c1ccccc1 ; criterion: growth inhibition no lower than 10%. Met?
Criterion not met

Record COc1ccc(S(=O)(=O)N2OC2c2ccccc2)cc1 (centres undefined) ; criterion: growth inhibition no lower than 10%. Met?
Criterion met

Record CCCCNC(=S)/N=C/c1c(O)cc(C)oc1=O ; criterion: growth inhibition no lower than 10%. Met?
Criterion not met

Record CCN(CC)CC(C)(C)C(=O)/C=C/c1ccc(OC)cc1 ; criterion: growth inhibition no lower than 10%. Met?
Criterion not met

Record C=C[C@@]1(C)CCC2(O)C(CCC3C2(C)CCC[C@@]3(C)COC(=O)CC(=O)OC)C1 (some centres undefined) ; criterion: growth inhibition no lower than 10%. Met?
Criterion met

Record COc1ccc(S(=O)(=O)N/N=C/c2cccc([N+](=O)[O-])c2O)cc1 ; criterion: growth inhibition no lower than 10%. Met?
Criterion met

Record COc1ccc2ccc3c(CCN(C)C#N)cc4c(c3c2c1OC(C)=O)OCO4 ; criterion: growth inhibition no lower than 10%. Met?
Criterion not met

Record CCCCOC(=O)C(C)OC(=O)OC (centres undefined) ; criterion: growth inhibition no lower than 10%. Met?
Criterion not met

Record C=CCOC(=O)Nc1ccc(C)c(NC(=O)OCC=C)c1 ; criterion: growth inhibition no lower than 10%. Met?
Criterion not met

###

Assay: NCI Yeast Anticancer Drug Screen. Data for the mec2-1 strain (AID 157)
Conditions: S. cerevisiae mec2-1 strain, at 50.0 µM, hits give high values
The panel holds about 79,000 compounds, 15% with a hit somewhere; the sample as a whole holds those more often.
quantity_measured: growth inhibition (%)
Field: numeric (%). Do not append units.

Name the recorded growth inhibition for COC(=O)/C(=N\NC(N)=O)C(C(=O)C=C(C)C)C(=O)C(=O)Nc1ccc(Cl)c(Cl)c1 (stereo unspecified) .
-40.6

Name the recorded growth inhibition for N#CCCC1(c2ccccc2)CCC/C(=C/c2ccccc2)C1=O (stereo unspecified) .
14.1

Name the recorded growth inhibition for COCCN(CCOC)C1C2=C(CCCC2)OS(=O)(=O)C1c1ccccc1 (stereo unspecified) .
-4.75

Name the recorded growth inhibition for Cc1ccc(OC(=O)c2cccs2)cc1 .
4.95

Name the recorded growth inhibition for C=C(C)C(C)(C)/C(C)=N\Nc1ccc([N+](=O)[O-])cc1[N+](=O)[O-] .
-7.6

Name the recorded growth inhibition for O=C(NCCc1ccccc1)c1ccc2ccccc2n1 .
53.3

Name the recorded growth inhibition for CC(C)COCC1COC2(OCC(C)(C)C2OC(=O)Nc2ccccc2)O1 (stereo unspecified) .
-0.6

Name the recorded growth inhibition for CN(C)S(=O)(=O)c1ccc(NC(=O)OC2CCCC2)cc1 .
3.7

Name the recorded growth inhibition for O=C1c2ccccc2C(=O)N1C1Nc2ccccc2N1 .
10.6

Name the recorded growth inhibition for C=CCOC(=O)Nc1ccc(S(=O)(=O)N(CCC)CCC)cc1 .
-33

Name the recorded growth inhibition for O=C(NC(=O)c1ccccc1[N+](=O)[O-])Nc1ccc(Oc2ncc(Br)cn2)c(Cl)c1 .
-30.8
